pIC50: −log10 of the molar value.
For Acetylcholinesterase (Electrophorus electricus), measured pIC50 is reported for the entries below.

SMILES: c1ccc(-c2cc(N3CCCC3)c3ccccc3n2)cc1
RESULT_OPERATOR: =
pIC50: 5.43
--
SMILES: OCCCCNc1cc(-c2ccc3c(c2)OCO3)nc2ccccc12
RESULT_OPERATOR: =
pIC50: 5.37
--
SMILES: COc1cc(-c2ccc3c(c2)OCO3)nc2ccccc12
RESULT_OPERATOR: =
pIC50: 4.44
--
SMILES: c1ccc2c(N3CCCC3)cc(-c3ccc4c(c3)OCO4)nc2c1
RESULT_OPERATOR: =
pIC50: 6.14
--
SMILES: c1ccc2c(N3CCCCC3)cc(-c3ccc4c(c3)OCO4)nc2c1
RESULT_OPERATOR: <
pIC50: 5.00
--
SMILES: c1ccc(-c2cc(NCCCN3CCOCC3)c3ccccc3n2)cc1
RESULT_OPERATOR: <
pIC50: 5.00
--
SMILES: OCCCCCCNc1cc(-c2ccccc2)nc2ccccc12
RESULT_OPERATOR: =
pIC50: 5.21
--
SMILES: c1ccc2c(NCCCN3CCOCC3)cc(-c3ccc4c(c3)OCO4)nc2c1
RESULT_OPERATOR: =
pIC50: 5.49
--
SMILES: OCCCCNc1cc(-c2ccccc2)nc2ccccc12
RESULT_OPERATOR: =
pIC50: 5.01
--
SMILES: OCCCNc1cc(-c2ccc3c(c2)OCO3)nc2ccccc12
RESULT_OPERATOR: =
pIC50: 5.37
--
SMILES: c1ccc2c(NCCCN3CCCCC3)cc(-c3ccc4c(c3)OCO4)nc2c1
RESULT_OPERATOR: =
pIC50: 5.32

====

As shown below, each of these compounds has a reported inhibition value.
Molecular target: Amyloid-beta precursor protein (Homo sapiens) (UniProt P05067)
Sequence (P05067 whole entry): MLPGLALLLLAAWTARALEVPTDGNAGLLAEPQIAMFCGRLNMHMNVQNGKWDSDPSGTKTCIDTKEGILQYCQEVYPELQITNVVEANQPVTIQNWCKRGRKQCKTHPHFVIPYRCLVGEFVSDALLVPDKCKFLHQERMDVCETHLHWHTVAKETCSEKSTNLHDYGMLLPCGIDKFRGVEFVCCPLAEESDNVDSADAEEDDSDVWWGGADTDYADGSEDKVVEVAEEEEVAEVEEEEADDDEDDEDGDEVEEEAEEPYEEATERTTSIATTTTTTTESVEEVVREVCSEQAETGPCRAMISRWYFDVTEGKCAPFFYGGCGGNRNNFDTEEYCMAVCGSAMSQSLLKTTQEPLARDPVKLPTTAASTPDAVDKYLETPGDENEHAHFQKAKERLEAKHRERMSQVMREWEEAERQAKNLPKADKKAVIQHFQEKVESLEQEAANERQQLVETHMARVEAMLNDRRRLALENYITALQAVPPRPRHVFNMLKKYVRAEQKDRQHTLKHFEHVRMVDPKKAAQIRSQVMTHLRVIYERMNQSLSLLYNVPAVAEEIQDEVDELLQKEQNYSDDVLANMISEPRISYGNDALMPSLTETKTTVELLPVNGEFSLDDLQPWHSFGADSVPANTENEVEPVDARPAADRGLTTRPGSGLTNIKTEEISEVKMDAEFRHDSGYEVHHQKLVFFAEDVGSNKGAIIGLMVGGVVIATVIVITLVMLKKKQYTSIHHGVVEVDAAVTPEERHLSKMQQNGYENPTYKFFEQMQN
Test: Inhibition of self-induced human amyloid beta (1 to 42) peptide aggregation at 20 uM measured after 48 hrs by ThT fluorescence assay relative to control
OBSERVED_PROPERTY: inhibition (%)

SMILES: OCCCCCCNc1cc(-c2ccc3c(c2)OCO3)nc2ccccc12
OBSERVED_PROPERTY: inhibition
REPORTED_RESULT: 39.4
//
SMILES: OCCCCCCNc1cc(-c2ccccc2)nc2ccccc12
OBSERVED_PROPERTY: inhibition
REPORTED_RESULT: 29.2
//
SMILES: c1ccc(-c2cc(NCCCN3CCCCC3)c3ccccc3n2)cc1
OBSERVED_PROPERTY: inhibition
REPORTED_RESULT: 60.3
//
SMILES: c1ccc2c(NCCCN3CCOCC3)cc(-c3ccc4c(c3)OCO4)nc2c1
OBSERVED_PROPERTY: inhibition
REPORTED_RESULT: 61.6
//
SMILES: CCCCNc1cc(-c2ccc3c(c2)OCO3)nc2ccccc12
OBSERVED_PROPERTY: inhibition
REPORTED_RESULT: 30.6
//
SMILES: c1ccc2c(N3CCCC3)cc(-c3ccc4c(c3)OCO4)nc2c1
OBSERVED_PROPERTY: inhibition
REPORTED_RESULT: 62.5
//
SMILES: c1ccc2c(N3CCCCC3)cc(-c3ccc4c(c3)OCO4)nc2c1
OBSERVED_PROPERTY: inhibition
REPORTED_RESULT: 48.5
//
SMILES: OCCCCNc1cc(-c2ccccc2)nc2ccccc12
OBSERVED_PROPERTY: inhibition
REPORTED_RESULT: 40.7
//
SMILES: OCCCCNc1cc(-c2ccc3c(c2)OCO3)nc2ccccc12
OBSERVED_PROPERTY: inhibition
REPORTED_RESULT: 44.1
//
SMILES: c1ccc2c(NCCCN3CCCCC3)cc(-c3ccc4c(c3)OCO4)nc2c1
OBSERVED_PROPERTY: inhibition
REPORTED_RESULT: 65.6
//
SMILES: c1ccc(-c2cc(N3CCCC3)c3ccccc3n2)cc1
OBSERVED_PROPERTY: inhibition
REPORTED_RESULT: 57.7
//
SMILES: c1ccc(-c2cc(NCCCN3CCOCC3)c3ccccc3n2)cc1
OBSERVED_PROPERTY: inhibition
REPORTED_RESULT: 55.5
//
SMILES: COc1cc(-c2ccc3c(c2)OCO3)nc2ccccc12
OBSERVED_PROPERTY: inhibition
REPORTED_RESULT: 26.9
//
SMILES: OCCCNc1cc(-c2ccccc2)nc2ccccc12
OBSERVED_PROPERTY: inhibition
REPORTED_RESULT: 36.8
//
SMILES: OCCCNc1cc(-c2ccc3c(c2)OCO3)nc2ccccc12
OBSERVED_PROPERTY: inhibition
REPORTED_RESULT: 36.6
